The compounds listed here are annotated with their max response.
- EXPERIMENTAL TARGET: Nuclear receptor subfamily 1 group I member 2 (Rattus norvegicus)
- ASSAY OVERVIEW: qHTS assay for small molecule activators of the rat pregnane X receptor (rPXR) signaling pathway (AID 651751); note: 0% is about no effect
- APPLIED CONDITIONS: rPXR reporter cells, luciferase (One-Glo), 24 h
Note: unit % is implicit; provide only the numeric part.

INSERT INTO results (compound, assay_result) VALUES
  ('CC=C(Cl)Cl', -4.19),
  ('CC(C)C(C)C', 9.63),
  ('CCCCC(CC)CO (configuration not stated)', -2.06),
  ('CC(=O)c1cccc([N+](=O)[O-])c1', -2.86),
  ('O=Nc1ccc(NO)cc1', -3.74),
  ('C=CC(=O)OCCCC', 6.31),
  ('c1ccc2[nH]cnc2c1', 3.1),
  ('OC(CCl)CCl', 0.333);

Lab note: next compound to report on.
Prompt line: Looking for the measured max response of Cc1cccc(Br)c1 , can you help?
Response line: -3.61
